Values compiled from ChEMBL document CHEMBL4396907.

biological target: UniProtKB Q9QUN7; test: Antagonist activity at TLR2 in mouse RAW264.7 cells assessed as PAM3CSK4-induced NO production measured after 24 hrs by Griess assay

>  <smiles-representation>
COC(=O)[C@@H](N)CSCc1ccc(F)cc1

>  <units-symbol>
µM

>  <IC50>
99.6

$$$$
>  <smiles-representation>
COC(=O)[C@H](CSCc1ccccc1)NC(=O)c1cc(O)c(O)c(O)c1

>  <units-symbol>
µM

>  <IC50>
60.7

$$$$
>  <smiles-representation>
C#CCSC[C@H](N)C(=O)OC

>  <units-symbol>
µM

>  <IC50>
94.4

$$$$
>  <smiles-representation>
C=CCSC[C@H](NC(=O)c1ccc(O)cc1)C(=O)OC

>  <units-symbol>
µM

>  <IC50>
40.5

$$$$
>  <smiles-representation>
COC(=O)[C@H](CSCc1ccc(F)cc1)NC(=O)c1ccc(O)cc1

>  <units-symbol>
µM

>  <IC50>
37.3

$$$$
>  <smiles-representation>
C=CCSC[C@H](NC(=O)c1cc(O)cc(O)c1)C(=O)OC

>  <units-symbol>
µM

>  <IC50>
58.5

$$$$
>  <smiles-representation>
C=CCCCSC[C@H](NC(=O)c1cc(OC)c(OC)c(OC)c1)C(=O)OC

>  <units-symbol>
µM

>  <IC50>
22.5

$$$$
>  <smiles-representation>
COC(=O)[C@@H](N)CSCc1ccccc1

>  <units-symbol>
µM

>  <IC50>
117

$$$$
>  <smiles-representation>
C=CCCCSC[C@H](NC(=O)c1cc(O)cc(O)c1)C(=O)OC

>  <units-symbol>
µM

>  <IC50>
57.7

$$$$
>  <smiles-representation>
C=CCCSC[C@H](NC(=O)c1ccc(O)cc1)C(=O)OC

>  <units-symbol>
µM

>  <IC50>
54.9

$$$$
>  <smiles-representation>
COc1cc(C(=O)O)cc(OC)c1OC

>  <units-symbol>
µM

>  <IC50>
53.8

$$$$

====

target: Toll-like receptor 2 (Mus musculus) (UniProt Q9QUN7); assay: Antagonist activity at TLR2 in mouse RAW264.7 cells assessed as PAM3CSK4-induced NO production at 150 uM measured after 24 hrs by Griess assay; type: cell-based
Sequence (Q9QUN7 whole entry): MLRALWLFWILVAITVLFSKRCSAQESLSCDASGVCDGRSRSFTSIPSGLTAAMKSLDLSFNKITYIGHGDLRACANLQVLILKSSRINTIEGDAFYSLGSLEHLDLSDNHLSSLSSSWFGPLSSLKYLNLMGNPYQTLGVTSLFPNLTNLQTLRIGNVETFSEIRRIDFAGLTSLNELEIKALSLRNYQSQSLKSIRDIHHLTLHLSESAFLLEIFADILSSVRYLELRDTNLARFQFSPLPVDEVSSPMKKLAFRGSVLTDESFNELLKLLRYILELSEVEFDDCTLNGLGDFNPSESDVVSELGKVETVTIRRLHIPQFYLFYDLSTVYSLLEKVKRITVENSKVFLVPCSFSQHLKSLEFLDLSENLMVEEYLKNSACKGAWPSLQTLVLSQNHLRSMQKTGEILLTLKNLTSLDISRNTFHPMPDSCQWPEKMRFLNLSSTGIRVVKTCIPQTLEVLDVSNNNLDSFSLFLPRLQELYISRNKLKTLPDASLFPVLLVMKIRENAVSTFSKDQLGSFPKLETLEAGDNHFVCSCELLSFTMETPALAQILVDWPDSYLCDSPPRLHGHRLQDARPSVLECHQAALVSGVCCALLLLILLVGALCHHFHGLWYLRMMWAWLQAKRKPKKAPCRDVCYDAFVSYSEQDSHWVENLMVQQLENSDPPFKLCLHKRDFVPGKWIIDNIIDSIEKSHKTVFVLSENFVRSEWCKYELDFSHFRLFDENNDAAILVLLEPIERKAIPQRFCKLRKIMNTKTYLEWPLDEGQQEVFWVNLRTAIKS
The source made the active and inactive calls. The rule behind the calls is not given here.

>  <smiles-representation>
C=CCCSC[C@H](N)C(=O)O

>  <Activity>
inactive

$$$$
>  <smiles-representation>
C#CCSC[C@H](N)C(=O)O

>  <Activity>
inactive

$$$$
>  <smiles-representation>
N[C@@H](CSCc1ccc(F)cc1)C(=O)O

>  <Activity>
inactive

$$$$
>  <smiles-representation>
C=CCCCSC[C@H](N)C(=O)O

>  <Activity>
inactive

$$$$
>  <smiles-representation>
C=CCSC[C@H](N)C(=O)O

>  <Activity>
inactive

$$$$
>  <smiles-representation>
N[C@@H](CSCc1ccccc1)C(=O)O

>  <Activity>
inactive

$$$$
